# Test system: human melanoma cell line Arn8 (p53-responsive reporter)
# PROTOCOL: p53-dependent transcriptional activity, β-galactosidase reporter
# Type: cell-based
# PARTICULARS: concentration inducing maximum of β-galactosidase activity
Max β-Gal. Activtity Conc. less than 10 µM is Met; Max β-Gal. Activtity Conc. greater than or equal to 10 µM is Not met.

CC[C@H](CO)Nc1nc(NCc2ccccc2)c2[nH]nc(C)c2n1 = Met
COc1ccc(CNc2nc(NC3CCCC3)nc3c(C(C)C)n[nH]c23)cc1 = Not met
CC(C)c1n[nH]c2c(Nc3cccc(Cl)c3)nc(NC3CCCC3)nc12 = Not met
Cc1n[nH]c2c(NCc3ccccc3)nc(N[C@@H](CO)C(C)C)nc12 = Met
CC[C@H](CO)Nc1nc(Nc2cccc(Cl)c2)c2[nH]nc(C(C)C)c2n1 = Not met

Does `CC[C@H](CO)Nc1nc(NCc2ccc(OC)cc2)c2[nH]nc(C(C)C)c2n1` have Max β-Gal. Activtity Conc. strictly under 10 µM? Met

Input `CC(C)c1n[nH]c2c(Nc3cccc(Cl)c3)nc(N[C@@H](CO)C(C)C)nc12` Met
